The measurements presented in this section are drawn from PubChem BioAssay AID651650.

assayed_target: Neuropilin-1 (Homo sapiens)
test_description: NRP-1 b1b2 CendR peptide binding inhibitors, dose response, biochemical, FP and AlphaScreen panel (AID 651650)
measurement_conditions: NRP-1 b1b2 / RPARPAR peptide binding, FP or AlphaScreen; AlphaScreen, mean of runs
The source made the active and inactive calls.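 How the source made its calls: active means mean IC50 below 20 µM in each of the two panels, so potent in both; inactive means the rest.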
# output must be one of 1 (active), -1 (inactive)

Past entries and their recorded results:
# compound, assayed_target, cat
rows = [
    ("O=C(O)CSc1nnc(-c2ccc(Cl)cc2Cl)n1-c1ccc(Cl)cc1", "Neuropilin-1 (Homo sapiens)", -1),
    ("Cc1cc(=O)n2nc(N3CCCC(C(=O)N4CCOCC4)C3)sc2n1 (configuration not stated)", "Neuropilin-1 (Homo sapiens)", -1),
    ("C=CCC1(CC=C)CCCN1C(=O)c1cc(COc2cccc(OC)c2)on1", "Neuropilin-1 (Homo sapiens)", -1),
    ("Nc1ccc(C(=O)Nc2ccc(Nc3ccncc3)cc2)c([N+](=O)[O-])c1", "Neuropilin-1 (Homo sapiens)", 1),
    ("Cn1c(=O)c2[nH]c(COc3ccccc3)nc2n(C)c1=O", "Neuropilin-1 (Homo sapiens)", -1),
    ("Cc1ccccc1Nc1cc(=O)oc2ccccc12", "Neuropilin-1 (Homo sapiens)", -1),
    ("NC(=O)CC[C@H](NC(=O)c1ccc(F)cc1)C(=O)N1CCN(Cc2ccc3c(c2)OCO3)CC1", "Neuropilin-1 (Homo sapiens)", -1),
    ("COc1ccc(-c2cc(C)no2)cc1S(=O)(=O)NCc1cccc(C)c1", "Neuropilin-1 (Homo sapiens)", -1),
]

Name the outcome recorded for `OCC[C@H]1C[C@H](O)[C@@H](O)[C@]2(CCCCO2)O1` in the assay. -1

What do we get for `C=C1CCN([C@@H](CC(C)C)C(=O)NCCC(C)C)S(=O)(=O)c2ccccc21` ? -1

Next up: `CC(C)c1ccc(S(=O)(=O)N2CCN(C(=O)CN3C(=O)c4ccccc4C3=O)CC2)cc1` -1

Also need `Cn1c(=NC(=O)COc2ccccc2)sc2ccccc21` , thanks. -1

Same lookup for CC(C(=O)N1CCN(c2ccc(Cl)cc2)CC1)c1ncc(C(F)(F)F)cc1Cl (configuration not stated) , please. -1

// same read-out, input: `COC(=O)C[C@H]1c2cc(F)ccc2S(=O)(=O)N1C(C)C` -1

And the next one, `Cc1ccc(C(=O)O)cc1NC(=O)Nc1cccc2ccccc12` ? -1
